test system: human TTR gene; assay: Base editing in primary human hepatocytes co-transfected with gRNA and ABE8.8 mRNA, NGS; format: cell-based; conditions: 1250 ng/RNA/mL, rep 1, 3 days after transfection
Listed molecules paired with reported Human hepatocytes- Editing % 1250, rep 1
Kindly format the answer as number then unit.

GA459: guide RNA, human TTR, protospacer GCAACTTACCCAGAGGCAAA (SEQ ID NO: 25), gRNA SEQ ID NO: 13 (nucleic acid, chemistry not given here) guide: GCAACTTACCCAGAGGCAAAGTTTTAGAGCTAGAAATAGCAAGTTAAAATAAGGCTAGTCCGTTATCAACTTGAAAAAGTGGCACCGAGTCGGTGCTTTT ... 5.46%
GA460: guide RNA, human/cyno TTR, protospacer TATAGGAAAACCAGTGAGTC (SEQ ID NO: 26), gRNA SEQ ID NO: 14 (nucleic acid, chemistry not given here) guide: TATAGGAAAACCAGTGAGTCGTTTTAGAGCTAGAAATAGCAAGTTAAAATAAGGCTAGTCCGTTATCAACTTGAAAAAGTGGCACCGAGTCGGTGCTTTT ... 38.33%
GA457: guide RNA, human TTR, protospacer GCCATCCTGCCAAGAATGAG (SEQ ID NO: 24), gRNA SEQ ID NO: 11 (nucleic acid, chemistry not given here) guide: GCCATCCTGCCAAGAATGAGGTTTTAGAGCTAGAAATAGCAAGTTAAAATAAGGCTAGTCCGTTATCAACTTGAAAAAGTGGCACCGAGTCGGTGCTTTT ... 26.49%

-- ask I have this molecule here, GA461: guide RNA, human/cyno TTR, protospacer TACTCACCTCTGCATGCTCA (SEQ ID NO: 27), gRNA SEQ ID NO: 15 (nucleic acid, chemistry not given here) guide: TACTCACCTCTGCATGCTCAGTTTTAGAGCTAGAAATAGCAAGTTAAAATAAGGCTAGTCCGTTATCAACTTGAAAAAGTGGCACCGAGTCGGTGCTTTT , and I need its recorded Human hepatocytes- Editing % 1250, rep 1.
-- reply 32.82%
